Study Target: Human BCL-XL protein (N-terminal HiBiT tagged BCL-XL expressed in HT1080 cells) (Homo sapiens)
Construct: expressed in transfected cells; host or cells: HT-1080 (ATCC CCL-121), stably transduced with lentivirus pLV-UBC-N-HiBiT-BCL-XL-PGK-puro and selected with puromycin
Test Protocol: HiBiT Based Degradation Assay
Format: cell-based
Settings: BCL-XL degradation, HT1080 cells expressing N-HiBiT-BCL-XL, 24 hours incubation, normalized with DMSO control; geometric mean for multiple data points; read-out: EC50 (24 h)
DC50: recorded values

Compound | DC50
Cn1nc(C2CCC(=O)NC2=O)c2ccc(NC(=O)CN3CCC(CCCOc4cccc(-c5ccc(N6CCc7cccc(C(=O)Nc8nc9ccccc9s8)c7C6)nc5C(=O)O)c4C(F)(F)F)CC3)c(F)c21 (centres unmarked) | 10 to 100 nM

The record that follows has no DC50 shown yet.
Could you share which DC50 value was measured for Cc1c(OCC[C@@H]2C[C@@H]3CN(CC(=O)Nc4ccc5c(C6CCC(=O)NC6=O)nn(C)c5c4)C[C@@H]3C2)cccc1-c1ccc(N2CCc3cccc(C(=O)Nc4nc5ccccc5s4)c3C2)nc1C(=O)O (some centres unmarked) [Compound 173a] ?
< 10 nM

====

Study Target: Human BCL-XL protein (N-terminal HiBiT tagged BCL-XL expressed in HT1080 cells) (Homo sapiens, UniProt Q07817)
Construct: expressed in transfected cells; host or cells: HT-1080 (ATCC CCL-121), stably transduced with lentivirus pLV-UBC-N-HiBiT-BCL-XL-PGK-puro and selected with puromycin
Sequence (Q07817 whole entry): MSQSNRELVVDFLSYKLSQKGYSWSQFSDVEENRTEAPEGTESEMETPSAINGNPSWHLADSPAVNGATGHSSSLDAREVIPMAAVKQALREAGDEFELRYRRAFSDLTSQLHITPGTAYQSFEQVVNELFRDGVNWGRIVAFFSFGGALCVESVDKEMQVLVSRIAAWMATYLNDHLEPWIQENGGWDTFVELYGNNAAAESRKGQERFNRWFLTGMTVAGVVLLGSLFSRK
Test Protocol: HiBiT Based Degradation Assay
Assay type: cell-based
Settings: BCL-XL degradation, HT1080 cells expressing N-HiBiT-BCL-XL, 24 hours incubation, normalized with DMSO control; geometric mean for multiple data points; read-out: EC50 (24 h)
Readout Type: DC50

Use these answered entries as a reference point.
Compound | DC50
Cc1cc(OC[C@H]2C[C@H]2CC2CCN(CC(=O)Nc3ccc4c(C5CCC(=O)NC5=O)nn(C)c4c3)CC2)ccc1-c1ccc(N2CCc3cccc(C(=O)Nc4nc5ccccc5s4)c3C2)nc1C(=O)O (single isomer, unassigned) [Compound 1002b] | < 10 nM
COc1cc2c(C3CCC(=O)NC3=O)nn(C)c2cc1NC(=O)CN1CCC2(CC1)CC(COc1cccc(-c3ccc(N4CCc5cccc(C(=O)Nc6nc7ccccc7s6)c5C4)nc3C(=O)O)c1C)C2 (stereo not drawn) | 100 to 1000 nM
Cc1c(OC[C@@H]2C[C@@H]2C2CCN(CC(=O)Nc3ccc4c(C5CCC(=O)NC5=O)nn(C)c4c3)CC2)cccc1-c1ccc(N2CCc3cccc(C(=O)Nc4nc5ccccc5s4)c3C2)nc1C(=O)O (single isomer, unassigned) [Compound 1001d] | 10 to 100 nM

Could you share which DC50 value was measured for Cc1cc(OC[C@H]2C[C@@H]2CC2CCN(CC(=O)Nc3ccc4c(C5CCC(=O)NC5=O)nn(C)c4c3)CC2)ccc1-c1ccc(N2CCc3cccc(C(=O)Nc4nc5ccccc5s4)c3C2)nc1C(=O)O (single isomer, unassigned) [Compound 1002a] ?
< 10 nM

Could you share which DC50 value was measured for Cc1c(OCCCC2CCN(CCNc3ccc4c(C5CCC(=O)NC5=O)nn(C)c4c3)CC2)cccc1-c1ccc(N2CCc3cccc(C(=O)Nc4nc5ccccc5s4)c3C2)nc1C(=O)O (stereo not drawn) ?
< 10 nM

Could you share which DC50 value was measured for Cc1c(OC[C@H]2C[C@H]2C2CCN(CC(=O)Nc3ccc4c(C5CCC(=O)NC5=O)nn(C)c4c3)CC2)cccc1-c1ccc(N2CCc3cccc(C(=O)Nc4nc5ccccc5s4)c3C2)nc1C(=O)O (single isomer, unassigned) [Compound 1001c] ?
10 to 100 nM

====

Study Target: Human BCL-XL protein (N-terminal HiBiT tagged BCL-XL expressed in HT1080 cells) (Homo sapiens, UniProt Q07817)
Construct: expressed in transfected cells; host or cells: HT-1080 (ATCC CCL-121), stably transduced with lentivirus pLV-UBC-N-HiBiT-BCL-XL-PGK-puro and selected with puromycin
Test Protocol: HiBiT Based Degradation Assay
Type: cell-based
Settings: bottom of BCL-XL degradation curve (remaining HiBiT-BCL-XL signal vs DMSO control), HT1080 cells, 24 hours incubation
Readout Type: Ymin (24 h)

Compound | Readout Type | Experimental Value
Cc1cc(OCCCC2CCN(CCNc3ccc4c(C5CCC(=O)NC5=O)nn(C)c4c3)CC2)ccc1-c1ccc(N2CCc3cccc(C(=O)Nc4nc5ccccc5s4)c3C2)nc1C(=O)O (stereo not drawn) | Ymin (24 h) | A (Ymin < 30%)
Cc1c(OCC2CC3(CCN(CCCc4ccc5c(C6CCC(=O)NC6=O)nn(C)c5c4)CC3)C2)cccc1-c1ccc(N2CCc3cccc(C(=O)Nc4nc5ccccc5s4)c3C2)nc1C(=O)O (stereo not drawn) | Ymin (24 h) | A (Ymin < 30%)

====

DC50: recorded values
Study Target: Human BCL-XL protein (N-terminal HiBiT tagged BCL-XL expressed in HT1080 cells) (Homo sapiens, UniProt Q07817)
Construct: expressed in transfected cells; host or cells: HT-1080 (ATCC CCL-121), stably transduced with lentivirus pLV-UBC-N-HiBiT-BCL-XL-PGK-puro and selected with puromycin
Test Protocol: HiBiT Based Degradation Assay
Assay type: cell-based
Settings: BCL-XL degradation, HT1080 cells expressing N-HiBiT-BCL-XL, 24 hours incubation, normalized with DMSO control; geometric mean for multiple data points; read-out: EC50 (24 h)

Use these answered entries as a reference point.
Compound | DC50
COc1c(NC(=O)CN2CC[C@H](CCCOc3cccc(-c4ccc(N5CCc6cccc(C(=O)Nc7nc8ccccc8s7)c6C5)nc4C(=O)O)c3C)C[C@@H]2C)ccc2c(C3CCC(=O)NC3=O)nn(C)c12 (some centres unmarked) [Compound 208b] | 10 to 100 nM
COc1c(NC(=O)CN2CCC(CCCOc3ccc(-c4ccc(N5CCc6ccnc(C(=O)Nc7nc8ccccc8s7)c6C5)nc4C(=O)O)c(C(F)(F)F)c3)CC2)ccc2c(C3CCC(=O)NC3=O)nn(C)c12 (centres unmarked) | 10 to 100 nM

Could you share which DC50 value was measured for Cn1nc(C2CCC(=O)NC2=O)c2ccc(NC(=O)CN3CCC4(CC3)CC(COc3ccc(-c5ccc(N6CCc7cccc(C(=O)Nc8nc9ccccc9s8)c7C6)nc5C(=O)O)c(C(F)(F)F)c3)C4)cc21 (centres unmarked) ?
< 10 nM

Could you share which DC50 value was measured for Cc1c(OC2CC3(CCN(CC(=O)Nc4ccc5c(C6CCC(=O)NC6=O)nn(C)c5c4)CC3)C2)cccc1-c1ccc(N2CCc3ccnc(C(=O)Nc4nc5ccccc5s4)c3C2)nc1C(=O)O (centres unmarked) ?
< 10 nM

Could you share which DC50 value was measured for Cc1cc(OC2CC3(CCN(CC(=O)Nc4ccc5c(C6CCC(=O)NC6=O)nn(C)c5c4F)CC3)C2)ccc1-c1ccc(N2CCc3ccnc(C(=O)Nc4nc5ccccc5s4)c3C2)nc1C(=O)O (centres unmarked) ?
< 10 nM

====

Study Target: Human BCL-XL protein (N-terminal HiBiT tagged BCL-XL expressed in HT1080 cells) (Homo sapiens)
Construct: expressed in transfected cells; host or cells: HT-1080 (ATCC CCL-121), stably transduced with lentivirus pLV-UBC-N-HiBiT-BCL-XL-PGK-puro and selected with puromycin
Test Protocol: HiBiT Based Degradation Assay
Assay type: cell-based
Settings: bottom of BCL-XL degradation curve (remaining HiBiT-BCL-XL signal vs DMSO control), HT1080 cells, 24 hours incubation
Readout Type: Ymin (24 h)

Use these answered entries as a reference point.
Molecule | Ymin (24 h)
COc1cc2c(C3CCC(=O)NC3=O)nn(C)c2cc1NC(=O)CN1CCC(CCCOc2ccc(-c3ccc(N4CCc5cccc(C(=O)Nc6nc7ccccc7s6)c5C4)nc3C(=O)O)c(C)c2)CC1 (centres unmarked) | B (30% ≤ Ymin < 50%)
COc1c(NC(=O)CN2CC[C@@H](CCCOc3ccc(-c4ccc(N5CCc6cccc(C(=O)Nc7nc8ccccc8s7)c6C5)nc4C(=O)O)c(C)c3)C[C@H]2C)ccc2c(C3CCC(=O)NC3=O)nn(C)c12 (some centres unmarked) [Compound 210d] | A (Ymin < 30%)
COc1c(NC(=O)CN2CC[C@@H](CCCOc3cccc(-c4ccc(N5CCc6ccnc(C(=O)Nc7nc8ccccc8s7)c6C5)nc4C(=O)O)c3C)C[C@@H]2C)ccc2c(C3CCC(=O)NC3=O)nn(C)c12 (some centres unmarked) [Compound 216b] | B (30% ≤ Ymin < 50%)
Cc1cc(OC[C@@H]2C[C@H]2CC2CCN(CC(=O)Nc3ccc4c(C5CCC(=O)NC5=O)nn(C)c4c3)CC2)ccc1-c1ccc(N2CCc3cccc(C(=O)Nc4nc5ccccc5s4)c3C2)nc1C(=O)O (single isomer, unassigned) [Compound 1002c] | A (Ymin < 30%)

Could you share which Ymin (24 h) value was measured for Cn1nc(C2CCC(=O)NC2=O)c2ccc(NC(=O)CN3CCC4(CC3)CC(COc3cccc(-c5ccc(N6CCc7ccnc(C(=O)Nc8nc9ccccc9s8)c7C6)nc5C(=O)O)c3C(F)(F)F)C4)cc21 (centres unmarked) ?
B (30% ≤ Ymin < 50%)
